Assay: Cmax in rat at 0.5 mg/kg, iv and 5 mg/kg, po
Type: ADME, organism-based
Details: in vivo
MEASURED_ATTRIBUTE: Cmax (ng/mL)
Give the number; ng/mL is assumed, so skip it.

Query: Cmax; subject: CN1CC(c2ccc(NC(=O)c3nc(C#N)c[nH]3)c(C3=CCCCC3)c2)CN(C)S1(=O)=O
839

###

Assay: Volume of distribution in rat at 0.5 mg/kg, iv and 5 mg/kg, po
Format: ADME, organism-based
Details: in vivo
MEASURED_ATTRIBUTE: Vd (L/kg)
Give the number; L/kg is assumed, so skip it.

Query: Vd; subject: CN1CC(c2ccc(NC(=O)c3nc(C#N)c[nH]3)c(C3=CCCCC3)c2)CN(C)S1(=O)=O
0.564

###

Assay: Bioavailability in rat at 0.5 mg/kg, iv and 5 mg/kg, po
Format: ADME, organism-based
Details: in vivo
MEASURED_ATTRIBUTE: bioavailability
Number first, unit second.

Query: bioavailability; subject: CN1CC(c2ccc(NC(=O)c3nc(C#N)c[nH]3)c(C3=CCCCC3)c2)CN(C)S1(=O)=O
15%
